# study system: Rac1b (Homo sapiens, UniProt P63000)
# Construct: GST (N); made in house; host or cells: E. coli BL21 Codon+RIL
# assay protocol: Nucleotide binding assay: BODIPY-GTP binding to Rac1b
# Type: biochemical
# condition: read-out: Rac1b % inhibition of BODIPY-GTP binding
Where a name gives a salt, the structure may show the parent alone.
Listing of recorded inhibition at 50 µM by entry.
readout label: inhibition at 50 µM (%)

- COc1cc2cc3c4cc(OC)c(OC)cc4cc[n+]3c(C)c2cc1OC [Compound 8, hydrate, reference compound]: 44
- COc1ccc2c(c1OC)CN1CCc3cc4c(cc3C1C2)OCO4 (racemic) [Compound 3, (±)-Canadine hydrochloride]: -7
- COc1ccc2cc3[n+](cc2c1OC)CCc1cc(O)c(O)cc1-3 [Compound 4]: 54
- COc1ccc2c(c1OC)CN1CCc3cc(O)c(O)cc3C1C2 (racemic) [Compound 17, hydrochloride]: -7
- COc1cc2c(cc1OC)-c1cc3ccc(OC)c(OC)c3c[n+]1CC2 [Compound 2, palmatine chloride, hydrate, reference compound]: 19

---

# study system: Rac1 activated by DH/PH domain of Guanine nucleotide Exchange Factor Tiam1 (Rac1/Tiam1) (Homo sapiens)
# Construct: made in house; host or cells: E. coli BL21 Codon+RIL
# assay protocol: Nucleotide binding assay: BODIPY-GTP binding to Rac1 activated by Tiam1 DH/PH
# Format: biochemical
# condition: read-out: Rac1 % inhibition of BODIPY-GTP binding
Where a name gives a salt, the structure may show the parent alone.
Entries and their inhibition at 50 µM values follow.
readout label: inhibition at 50 µM (%)

- COc1ccc2c(c1OC)CN1CCc3cc4c(cc3C1C2)OCO4 (racemic) [Compound 3, (±)-Canadine hydrochloride]: 1
- COc1ccc2c(c1OC)CN1CCc3cc(O)c(O)cc3C1C2 (racemic) [Compound 17, hydrochloride]: 5
- COc1ccc2cc3[n+](cc2c1OC)CCc1cc(O)c(O)cc1-3 [Compound 4]: 39

---

inhibition at 50 µM values by entry
# study system: Cdc42 (Homo sapiens, UniProt P60953)
# Construct: GST (N); made in house; host or cells: E. coli BL21 Codon+RIL
# Sequence (P60953 whole entry, species assumed): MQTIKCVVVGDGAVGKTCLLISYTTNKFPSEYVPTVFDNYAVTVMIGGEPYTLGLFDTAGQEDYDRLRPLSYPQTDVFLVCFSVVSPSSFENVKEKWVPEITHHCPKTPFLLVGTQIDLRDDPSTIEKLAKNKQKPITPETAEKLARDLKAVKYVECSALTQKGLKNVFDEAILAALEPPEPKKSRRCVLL
# assay protocol: Nucleotide binding assay: BODIPY-GTP binding to Cdc42
# Format: biochemical
# condition: final concentration of 50 μM; read-out: Cdc42 % inhibition of BODIPY-GTP binding
Where a name gives a salt, the structure may show the parent alone.
readout label: inhibition at 50 µM (%)

* Oc1cc2c(cc1O)-c1cc3ccc(O)c(O)c3c[n+]1CC2 [Compound 6] | 100
* COc1cc2cc(-c3cccc(NC(C)=O)c3)nc(C)c2cc1OC [Compound 31, hydrochloride] | 10
* COc1cc2cc(-c3ccc4c(c3)OCO4)nc(C)c2cc1OC [Compound 21, hydrochloride] | 18
* COc1cc2cc(-c3cccc(NS(C)(=O)=O)c3)nc(C)c2cc1OC [Compound 30, hydrochloride] | 4
* COc1cc2cc(-c3ccc(Cl)c(Cl)c3)nc(C)c2cc1OC [Compound 39] | 5
* COc1cc2cc(-c3cccc([N+](=O)[O-])c3)nc(C)c2cc1OC [Compound 23] | 14
* COc1cc2cc(-c3ccccc3NC(C)=O)nc(C)c2cc1OC [Compound 38] | 3
* COc1cc2c(cc1OC)-c1cc3ccc(OC)c(OC)c3c[n+]1CC2 [Compound 2, palmatine chloride, hydrate, reference compound] | 11
* COc1ccc2cc3[n+](cc2c1OC)CCc1cc(O)c(O)cc1-3 [Compound 4] | 31
* Cc1c2cc(O)c(O)cc2cc2c3cc(O)c(O)cc3cc[n+]12 [Compound 15] | 70
* COc1ccc2cc3[n+](cc2c1OC)CCc1cc2c(cc1-3)OCO2 [Compound 1, Berberine chloride, reference compound] | 8
* COc1cc(-c2cc3cc(OC)c(OC)cc3c(C)n2)ccc1O [Compound 47, hydrochloride] | 17
* CCc1cc2c(cc1C1Cc3ccc(OC)c(OC)c3CN1C)OCO2 (racemic) [Compound 20] | 8
* COc1cc2cc(-c3ccc(Cl)cc3)nc(C)c2cc1OC [Compound 42] | 11
* COc1cc2cc(-c3ccccc3)nc(C)c2cc1OC [Compound 44] | 10
* COc1cc2cc(-c3ccccc3)[n+](C)cc2cc1OC [Compound 50] | 10
* COc1ccc2c(c1OC)C(c1ccccc1)N1CCc3cc4c(cc3C1=C2)OCO4 (stereo not drawn) [Compound 10] | 17
* Cc1c2cc(O)c(O)cc2cc(-c2ccc(O)c(O)c2)[n+]1C [Compound 45] | 12
* COc1cc2cc(-c3cccnc3)nc(C)c2cc1OC [Compound 36, dihydrochloride] | -4
* COc1cc2cc(-c3ccc(C)cc3)nc(C)c2cc1OC [Compound 43] | 15
* COc1ccc2c(c1OC)C(Cc1ccccc1)N1CCc3cc4c(cc3C1C2)OCO4 (racemic) [Compound 12, hydrochloride] | 9
* COc1cc2cnc(-c3ccccc3)cc2cc1OC [Compound 49] | 2
* COc1cc2cc(-c3ccccc3NC(=O)N(C)C)nc(C)c2cc1OC [Compound 46, hydrochloride] | 2
* COc1ccc(-c2cc3cc(OC)c(OC)cc3c(C)n2)cc1 [Compound 40] | 14
* COc1cc2cc(-c3ccc(O)c(O)c3)nc(C)c2cc1OC [Compound 26, hydrochloride] | 15
* Cl.Oc1cc2c(cc1O)CN(Cc1cccc(O)c1O)CC2 [Compound 19] | 17
* COc1cc2cc(-c3ccc4c(c3)OCO4)[n+](C)c(C)c2cc1OC [Compound 22] | 14
* COc1cc2cc(-c3cccc(N(S(C)(=O)=O)S(C)(=O)=O)c3)nc(C)c2cc1OC [Compound 29, hydrochloride] | 2
* COc1ccc2c(c[n+](C)c3c4cc5c(cc4ccc23)OCO5)c1OC.[Cl-] [Compound 14, reference compound] | 35
* COc1cc2c(cc1OC)CN(Cc1cccc(O)c1O)CC2 [Compound 18] | -8

---

# inhibition at 50 µM per record follows
# study system: Rac1 activated by DH/PH domain of Guanine nucleotide Exchange Factor Tiam1 (Rac1/Tiam1) (Homo sapiens)
# Construct: made in house; host or cells: E. coli BL21 Codon+RIL
# assay protocol: Nucleotide binding assay: BODIPY-GTP binding to Rac1 activated by Tiam1 DH/PH
# Format: biochemical
# condition: final concentration of 50 μM; Rac1/Tiam1; read-out: Rac1 % inhibition of BODIPY-GTP binding
Counter-ions that a name gives are not always drawn.
readout label: inhibition at 50 µM (%)

• COc1cc2cc(-c3ccc4c(c3)OCO4)nc(C)c2cc1OC [Compound 21, hydrochloride] = 13
• CNC(=O)c1ccc(-c2cc3cc(OC)c(OC)cc3c(C)n2)cc1 [Compound 34] = -2
• COc1cc2cc(-c3ccc(C)cc3)nc(C)c2cc1OC [Compound 43] = 19
• COc1cc2cc(-c3cccc([N+](=O)[O-])c3)nc(C)c2cc1OC [Compound 23] = 3
• Cl.Oc1cc2c(cc1O)CN(Cc1cccc(O)c1O)CC2 [Compound 19] = 9
• COc1ccc2cc3[n+](cc2c1OC)CCc1cc2c(cc1-3)OCO2 [Compound 1, Berberine chloride, reference compound] = 15
• COc1cc2cc(-c3ccc(Cl)cc3)nc(C)c2cc1OC [Compound 42] = 18

---

# study system: Rac1b (Homo sapiens)
# Construct: GST (N); made in house; host or cells: E. coli BL21 Codon+RIL
# assay protocol: Nucleotide binding assay: BODIPY-GTP binding to Rac1b
# Assay type: biochemical
# condition: final concentration of 50 μM; read-out: Rac1b % inhibition of BODIPY-GTP binding
# Description: Fluorescence of GTP analog BODIPY-GTP increases when it binds to small G proteins. This property was used to assess ability of compounds to inhibit nucleotide binding to Rac1, Rac1b and Cdc42. […] Fluorescence recording were started (λEx: 485 nm; λEm: 538 nm) using a spectrofluorimeter (Fluoroskan; Thermolab Systems). […] Fluorescence values were recorded, and data were processed as follows: background fluorescence (unbound BODIPY-GTP) was retrieved from fluorescence values. […]
Counter-ions that a name gives are not always drawn.
readout label: inhibition at 50 µM (%)

• COc1cc2cc(-c3cccc(NC(C)=O)c3)nc(C)c2cc1OC [Compound 31, hydrochloride] = 10
• COc1cc2cc(-c3ccccc3)[n+](C)cc2cc1OC [Compound 50] = 10
• COc1ccc2c(c[n+](C)c3c4cc5c(cc4ccc23)OCO5)c1OC.[Cl-] [Compound 14, reference compound] = 100
• COc1cc2cc(-c3ccc4c(c3)OCO4)[n+](C)c(C)c2cc1OC [Compound 22] = 18
• COc1cc2cc(-c3ccc(Cl)c(Cl)c3)nc(C)c2cc1OC [Compound 39] = 42
• COc1cc2cc(-c3ccc(C)cc3)nc(C)c2cc1OC [Compound 43] = 17
• CNC(=O)c1ccc(-c2cc3cc(OC)c(OC)cc3c(C)n2)cc1 [Compound 34] = 3
• COc1cc2cc(-c3cccc([N+](=O)[O-])c3)nc(C)c2cc1OC [Compound 23] = 10
• CCc1cc2c(cc1C1Cc3ccc(OC)c(OC)c3CN1C)OCO2 (racemic) [Compound 20] = -6
• COc1ccc2cc3[n+](cc2c1OC)CCc1cc2c(cc1-3)OCO2 [Compound 1, Berberine chloride, reference compound] = 23
